Kindly state strain resistant or sensitive to the drug for each of the entries shown.
Test system: M. tuberculosis MDR strain Praha 4
method notes: microbe, parasite or virus in culture
Type: cell-based
Answers are plain numbers, in R.

NNC(=O)c1ccncc1: 14.6

Could you tell me strain resistant or sensitive to the drug for each of these compounds? They are listed below.
1. CC[C@@H](CO)NCCN[C@@H](CC)CO
2. CC(C)/N=c1\cc2n(-c3ccc(Cl)cc3)c3ccccc3nc-2cc1Nc1ccc(Cl)cc1

19.6
0.53

* * *

Test system: M. tuberculosis MDR strain 234/2005
method notes: microbe, parasite or virus in culture
Type: cell-based
Can you tell me strain resistant or sensitive to the drug for the items I'm about to list?
Give bare numbers, in R.

[H]/N=C(/N)N[C@H]1[C@H](O)[C@@H](O)[C@H](O[C@@H]2O[C@@H](C)[C@](O)(C=O)[C@H]2O[C@@H]2O[C@@H](CO)[C@H](O)[C@@H](O)[C@@H]2NC)[C@@H](N/C(N)=N\[H])[C@@H]1O [Streptomycin]: 27.5
NNC(=O)c1ccncc1 [Isoniazid]: 14.6

Please find the next compound below.
Given the compound CC[C@@H](CO)NCCN[C@@H](CC)CO [Etambutol] , what is its reported strain resistant or sensitive to the drug?
19.6
